Target: butyrylcholinesterase (BChE, equine serum) (Equus caballus, UniProt P81908)
Construct: Butyrylcholinesterase (from equine serum) was purchased from Fluka; purchased Fluka; host or cells: equine serum
Sequence (P81908 whole entry): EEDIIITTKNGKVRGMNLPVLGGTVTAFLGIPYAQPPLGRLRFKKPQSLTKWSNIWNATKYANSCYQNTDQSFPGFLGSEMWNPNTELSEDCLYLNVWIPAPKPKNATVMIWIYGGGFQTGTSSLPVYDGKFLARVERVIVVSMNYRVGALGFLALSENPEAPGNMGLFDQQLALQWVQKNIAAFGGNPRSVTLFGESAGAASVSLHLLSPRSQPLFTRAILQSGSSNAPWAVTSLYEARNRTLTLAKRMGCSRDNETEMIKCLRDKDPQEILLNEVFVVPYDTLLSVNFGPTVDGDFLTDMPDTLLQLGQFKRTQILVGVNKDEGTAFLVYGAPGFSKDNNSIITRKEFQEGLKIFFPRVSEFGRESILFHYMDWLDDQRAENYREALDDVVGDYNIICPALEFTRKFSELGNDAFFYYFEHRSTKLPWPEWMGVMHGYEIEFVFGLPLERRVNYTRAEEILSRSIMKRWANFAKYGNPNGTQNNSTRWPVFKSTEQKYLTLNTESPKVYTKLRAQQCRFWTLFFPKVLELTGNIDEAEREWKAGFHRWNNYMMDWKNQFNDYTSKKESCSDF
Assay: Ellman's assay, butyrylcholinesterase inhibition
Type: biochemical
Conditions: BChE, equine serum; Ellman's assay
Readout Kind: Ki′ (uncompetitive inhibition) (µM)
Just the number please, in µM, no unit attached.

For CC1(C)CC[C@]2(C(=O)NCCN3CCCCC3)CC[C@]3(C)C(=CC[C@@H]4[C@@]5(C)CC[C@H](O)C(C)(C)[C@@H]5CC[C@]43C)[C@@H]2C1 [Compound 47] , what is its reported Ki′ (uncompetitive inhibition)?
10.42

Same for CC(=O)[C@@H]1CC[C@]2(C(=O)NCCN(C)C)CC[C@]3(C)[C@H](CC[C@@H]4[C@@]5(C)CC[C@H](O)C(C)(C)[C@@H]5CC[C@]43C)[C@@H]12 [Compound 30]
4.46

Same for CN(C)CCNC(=O)C12CCC(C)(C)CC1C1=CCC3C4(C)CCC(O)C(C)(C)C4CCC3(C)C1(C)CC2 (centres unmarked) [Compound 27]
9.07

Same for CC(=O)[C@@H]1CC[C@]2(C(=O)NCCN3CCCCC3)CC[C@]3(C)[C@H](CC[C@@H]4[C@@]5(C)CC[C@H](O)C(C)(C)[C@@H]5CC[C@]43C)[C@@H]12 [Compound 50]
3.09

* * *

Molecular target: butyrylcholinesterase (BChE, equine serum) (Equus caballus, UniProt P81908)
Construct: Butyrylcholinesterase (from equine serum) was purchased from Fluka; purchased Fluka; host or cells: equine serum
Assay: Ellman's assay, butyrylcholinesterase inhibition
Format: biochemical
Details: BChE, equine serum; Ellman's assay; read-out: Ki (competitive inhibition)
Description: In this study, carboxamides with different triterpenoic backbones (ursolic, oleanolic, maslinic, betulinic, and platanic acids), and various amine residues (Scheme 1), were investigated. A TECAN SpectraFluorPlus working in the kinetic mode and measuring the absorbance at λ = 415 nm was used for the enzymatic studies. […] determined as the quotient of the slopes (compound divided by blank) of the linear ranges. […]
pKi values by entry
Give only the number. pKi is defined as minus log10 of concentration in molar units.

Here's what some known entries look like.
Molecule	pKi
C[C@@H]1CC[C@]2(C(=O)NCCN(C)C)CC[C@]3(C)C(=CCC4[C@@]5(C)CC[C@H](O)C(C)(C)C5CC[C@]43C)C2[C@H]1C (stereo partly drawn)	5.95
CC(=O)[C@@H]1CC[C@]2(C(=O)NCCN(C)C)CC[C@]3(C)[C@H](CC[C@@H]4[C@@]5(C)CC[C@H](O)C(C)(C)[C@@H]5CC[C@]43C)[C@@H]12	5.95
C=C(C)C1CC[C@]2(C(=O)NCCN3CCCC3)CC[C@]3(C)C(CCC4[C@@]5(C)CC[C@H](OC(C)=O)C(C)(C)C5CC[C@]43C)C12 (stereo partly drawn)	6.41
CC(=O)O[C@H]1CC[C@]2(C)[C@H]3CC[C@@H]4[C@H]5[C@H](C(C)=O)CC[C@]5(C(=O)NCCN5CCCC5)CC[C@@]4(C)[C@]3(C)CC[C@H]2C1(C)C	7.15
CC(=O)[C@@H]1CC[C@]2(C(=O)NCCN3CCCC3)CC[C@]3(C)[C@H](CC[C@@H]4[C@@]5(C)CC[C@H](O)C(C)(C)[C@@H]5CC[C@]43C)[C@@H]12	6.35

For CC(=O)[C@@H]1CC[C@]2(C(=O)NCCN3CCCCC3)CC[C@]3(C)[C@H](CC[C@@H]4[C@@]5(C)CC[C@H](O)C(C)(C)[C@@H]5CC[C@]43C)[C@@H]12 , what is its reported pKi?
6.01

Same for C=C(C)C1CC[C@]2(C(=O)NCCN(C)C)CC[C@]3(C)C(CCC4[C@@]5(C)CC[C@H](O)C(C)(C)C5CC[C@]43C)C12 (stereo partly drawn)
5.45

Same for CN(C)CCNC(=O)C12CCC(C)(C)CC1C1=CCC3C4(C)CCC(O)C(C)(C)C4CCC3(C)C1(C)CC2 (stereo not drawn)
5.88

Same for CC(=O)[C@@H]1CC[C@]2(C(=O)NCCN)CC[C@]3(C)[C@H](CC[C@@H]4[C@@]5(C)CC[C@H](O)C(C)(C)[C@@H]5CC[C@]43C)[C@@H]12
5.08

Same for CC1(C)CCC2(C(=O)NCCN3CCCC3)CCC3(C)C(=CCC4C5(C)CCC(O)C(C)(C)C5CCC43C)C2C1 (stereo not drawn)
6.26

Same for CC(=O)O[C@H]1CC[C@]2(C)[C@H]3CC[C@@H]4[C@H]5[C@H](C(C)=O)CC[C@]5(C(=O)NCCN)CC[C@@]4(C)[C@]3(C)CC[C@H]2C1(C)C
4.92

Same for CC(=O)O[C@H]1CC[C@@]2(C)C(CC[C@]3(C)C2CC=C2C4[C@@H](C)[C@H](C)CC[C@]4(C(=O)NCCN(C)C)CC[C@]23C)C1(C)C (stereo partly drawn)
5.19

Same for CC1(C)CCC2(C(=O)NCCN3CCCC3)CCC3(C)C(=CCC4C5(C)CC(O)C(O)C(C)(C)C5CCC43C)C2C1 (stereo not drawn)
5.69

* * *

Grade of inhibition in% AChE values by entry
Target: acetylcholinesterase (AChE, electric eel) (Electrophorus electricus, UniProt O42275)
Sequence (O42275 24-633): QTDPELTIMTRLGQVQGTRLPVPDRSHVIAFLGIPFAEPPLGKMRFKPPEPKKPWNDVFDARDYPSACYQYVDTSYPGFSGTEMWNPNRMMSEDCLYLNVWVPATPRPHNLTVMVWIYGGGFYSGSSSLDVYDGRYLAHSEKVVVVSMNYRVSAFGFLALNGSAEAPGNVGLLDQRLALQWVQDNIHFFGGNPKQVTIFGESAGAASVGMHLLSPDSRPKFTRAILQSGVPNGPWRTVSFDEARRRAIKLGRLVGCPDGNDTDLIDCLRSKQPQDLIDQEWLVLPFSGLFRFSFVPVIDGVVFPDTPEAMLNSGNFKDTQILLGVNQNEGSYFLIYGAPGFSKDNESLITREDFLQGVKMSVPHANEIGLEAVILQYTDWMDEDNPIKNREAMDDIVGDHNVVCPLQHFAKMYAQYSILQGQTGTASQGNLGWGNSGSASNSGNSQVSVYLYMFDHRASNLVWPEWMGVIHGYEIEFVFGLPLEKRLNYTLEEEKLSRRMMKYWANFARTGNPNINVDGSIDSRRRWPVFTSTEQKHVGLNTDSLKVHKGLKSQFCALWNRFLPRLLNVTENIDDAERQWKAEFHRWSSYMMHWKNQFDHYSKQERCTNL
Details: c = 30 µM; mean ± SE
Just the number please, in %, no unit attached.

Here's what some known entries look like.
In [3]: df
Out[3]:
                                   molecule                          target_or_system  readout_unit  result_number
0  C=C(C)C1CC[C@]2(C(=O)NCCN3CCCC3)CC[C@]3(C)C(CCC4[C@@]5(C)CC[C@H](O)C(C)(C)C5CC[C@]43C)C12 (stereo partly shown)  acetylcholinesterase (AChE, electric eel) (Electrophorus electricus, UniProt O42275)             %          58.81
1  C[C@@H]1CC[C@]2(C(=O)NCCN(C)C)CC[C@]3(C)C(=CCC4[C@@]5(C)CC[C@H](O)C(C)(C)C5CC[C@]43C)C2[C@H]1C (stereo partly shown)  acetylcholinesterase (AChE, electric eel) (Electrophorus electricus, UniProt O42275)             %          33.53
2  CC(=O)[C@@H]1CC[C@]2(C(=O)NCCN(C)C)CC[C@]3(C)[C@H](CC[C@@H]4[C@@]5(C)CC[C@H](O)C(C)(C)[C@@H]5CC[C@]43C)[C@@H]12  acetylcholinesterase (AChE, electric eel) (Electrophorus electricus, UniProt O42275)             %          28.83
3  CC(=O)OC1CC2(C)C(CCC3(C)C2CC=C2C4CC(C)(C)CCC4(C(=O)NCCN4CCCCC4)CCC23C)C(C)(C)C1OC(C)=O (stereo not shown)  acetylcholinesterase (AChE, electric eel) (Electrophorus electricus, UniProt O42275)             %          23.30
4  C=C(C)C1CC[C@]2(C(=O)NCCN(C)C)CC[C@]3(C)C(CCC4[C@@]5(C)CC[C@H](O)C(C)(C)C5CC[C@]43C)C12 (stereo partly shown)  acetylcholinesterase (AChE, electric eel) (Electrophorus electricus, UniProt O42275)             %          22.12

Recorded Grade of inhibition in% AChE for CC1(C)CC[C@]2(C(=O)NCCN3CCCCC3)CC[C@]3(C)C(=CC[C@@H]4[C@@]5(C)CC[C@H](O)C(C)(C)[C@@H]5CC[C@]43C)[C@@H]2C1 with acetylcholinesterase (AChE, electric eel) (Electrophorus electricus, UniProt O42275), please?
38.65

Same for C=C(C)C1CC[C@]2(C(=O)NCCN3CCCCC3)CC[C@]3(C)C(CCC4[C@@]5(C)CC[C@H](OC(C)=O)C(C)(C)C5CC[C@]43C)C12 (stereo partly shown)
22.78

Same for CC(=O)OC1CCC2(C)C(CCC3(C)C2CC=C2C4CC(C)(C)CCC4(C(=O)NCCN4CCCCC4)CCC23C)C1(C)C (stereo not shown)
45.57

Same for CC(=O)OC1CCC2(C)C(CCC3(C)C2CC=C2C4CC(C)(C)CCC4(C(=O)NCCN)CCC23C)C1(C)C (stereo not shown)
31.69

Same for CC(=O)[C@@H]1CC[C@]2(C(=O)NCCN3CCCC3)CC[C@]3(C)[C@H](CC[C@@H]4[C@@]5(C)CC[C@H](O)C(C)(C)[C@@H]5CC[C@]43C)[C@@H]12
33.06

* * *

Target: butyrylcholinesterase (BChE, equine serum) (Equus caballus)
Construct: Butyrylcholinesterase (from equine serum) was purchased from Fluka; purchased Fluka; host or cells: equine serum
Test: Ellman's assay, butyrylcholinesterase inhibition
Assay type: biochemical
Details: BChE, equine serum; Ellman's assay
Ki′ (uncompetitive inhibition) values by entry

Compound	Ki′ (uncompetitive inhibition)
C[C@@H]1CC[C@]2(C(=O)NCCN(C)C)CC[C@]3(C)C(=CCC4[C@@]5(C)CC[C@H](O)C(C)(C)C5CC[C@]43C)C2[C@H]1C (stereo partly drawn) [Compound 26]	3.10 ± 0.30 µM

For CC1(C)CCC2(C(=O)NCCN3CCCC3)CCC3(C)C(=CCC4C5(C)CCC(O)C(C)(C)C5CCC43C)C2C1 (stereo not drawn) [Compound 37] , what is its reported Ki′ (uncompetitive inhibition)?
> 50 µM

Same for C[C@@H]1CC[C@]2(C(=O)NCCN3CCCC3)CC[C@]3(C)C(=CCC4[C@@]5(C)CC[C@H](O)C(C)(C)C5CC[C@]43C)C2[C@H]1C (stereo partly drawn) [Compound 36]
2.23 ± 0.12 µM

Same for CC1(C)CC[C@]2(C(=O)NCCN)CC[C@]3(C)C(=CC[C@@H]4[C@@]5(C)CC[C@H](O)C(C)(C)[C@@H]5CC[C@]43C)[C@@H]2C1 [Compound 17]
7.68 ± 0.61 µM

Same for CC(=O)O[C@H]1CC[C@]2(C)[C@H]3CC=C4[C@@H]5CC(C)(C)CC[C@]5(C(=O)NCCN5CCCC5)CC[C@@]4(C)[C@]3(C)CC[C@H]2C1(C)C [Compound 32]
29.88 ± 1.13 µM

Same for CC1(C)CCC2(C(=O)NCCN3CCCCC3)CCC3(C)C(=CCC4C5(C)CC(O)C(O)C(C)(C)C5CCC43C)C2C1 (stereo not drawn) [Compound 48]
6.21 ± 0.47 µM
